# test-target: USP28 (Homo sapiens (Human))
# Sequence (Q96RU2 whole entry): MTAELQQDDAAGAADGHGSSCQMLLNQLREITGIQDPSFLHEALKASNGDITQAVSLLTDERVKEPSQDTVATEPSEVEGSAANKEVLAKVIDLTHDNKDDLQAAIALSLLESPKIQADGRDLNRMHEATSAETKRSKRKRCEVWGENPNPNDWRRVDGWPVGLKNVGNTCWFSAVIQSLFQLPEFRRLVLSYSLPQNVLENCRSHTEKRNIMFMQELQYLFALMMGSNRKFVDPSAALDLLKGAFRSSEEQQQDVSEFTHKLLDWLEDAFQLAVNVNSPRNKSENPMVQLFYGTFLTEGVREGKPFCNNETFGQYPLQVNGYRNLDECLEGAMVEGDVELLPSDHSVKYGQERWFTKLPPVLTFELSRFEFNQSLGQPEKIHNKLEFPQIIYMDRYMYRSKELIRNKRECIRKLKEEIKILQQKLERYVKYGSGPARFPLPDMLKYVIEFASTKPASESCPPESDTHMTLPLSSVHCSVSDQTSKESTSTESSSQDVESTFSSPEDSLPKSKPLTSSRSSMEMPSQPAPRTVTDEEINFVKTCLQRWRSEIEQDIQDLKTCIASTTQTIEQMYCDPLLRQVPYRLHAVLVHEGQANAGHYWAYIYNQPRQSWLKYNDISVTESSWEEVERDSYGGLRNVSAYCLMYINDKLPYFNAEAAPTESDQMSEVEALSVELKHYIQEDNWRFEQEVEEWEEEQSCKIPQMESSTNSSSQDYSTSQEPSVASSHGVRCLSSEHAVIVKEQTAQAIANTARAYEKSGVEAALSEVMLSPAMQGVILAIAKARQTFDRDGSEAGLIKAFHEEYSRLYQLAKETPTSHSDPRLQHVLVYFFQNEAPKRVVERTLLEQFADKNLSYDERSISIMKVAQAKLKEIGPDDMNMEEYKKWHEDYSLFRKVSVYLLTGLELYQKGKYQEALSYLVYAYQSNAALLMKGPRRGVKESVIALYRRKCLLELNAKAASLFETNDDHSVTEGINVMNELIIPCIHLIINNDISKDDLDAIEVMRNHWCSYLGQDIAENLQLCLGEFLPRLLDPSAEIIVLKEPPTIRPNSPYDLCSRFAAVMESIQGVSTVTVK
# test-method-notes: Ubiquitin-Rhodamine 110 Assay for USP28 Activity
# Assay type: biochemical
pIC50: −log10 of the molar value.
assay-endpoint: pIC50

Reference set (8 entries):
* Nc1nc2sc(C(=O)NCCc3ccc(N4CCNCC4)cc3)c(N)c2cc1F [Example I-115] | > 6.70
* Cc1ccc2c(N)c(C(=O)NCCc3ccc(N4CCNCC4)c(C)c3)sc2n1 [Example I-74] | > 6.70
* Cc1ccc2c(N)c(C(=O)NCCc3ccc([C@@H]4CCNC4)cc3)sc2n1 (single isomer, unassigned) [Example I-181] | > 6.70
* Cc1ccc2c(N)c(C(=O)NCCc3cc(F)c(N4CCNCC4)cc3F)sc2n1 [Example I-11] | 5.70 to 6.70
* Cc1nc2sc(C(=O)NC[C@@H](C)c3cc(F)c(N4CCNCC4)cc3F)c(N)c2cc1F [Example I-99] | 5.00 to 5.70
* N#Cc1ccc2c(N)c(C(=O)NCCc3cc(F)c(N4CCNCC4)cc3F)sc2n1 [Example I-220] | 5.00 to 5.70
* Cc1ccc2c(N)c(C(=O)NC[C@@H](C)c3ccc(N4CC5CCC(C4)N5)c(F)c3)sc2n1 (single isomer, unassigned) [Example I-105] | 5.70 to 6.70
* Cc1nc2sc(C(=O)NC[C@H](C)c3ccc(N4CC5CCC(C4)N5)c(F)c3)c(N)c2cc1F (single isomer, unassigned) [Example I-108] | 5.70 to 6.70

Query: Query the reported pIC50 for USP28 (Homo sapiens (Human)); item: Cc1ccc2c(N)c(C(=O)NCCc3ccc(N4CCNCC4)cc3-c3ccccc3)sc2n1 [Example I-82]
Reply: > 6.70

Query: // map Cc1ccc2c(N)c(C(=O)NCCc3ccc(N4CCN(CCN5CCCC5)CC4)cc3)sc2n1 [Example I-119] to recorded pIC50 (system: USP28 (Homo sapiens (Human)))
Reply: 5.00 to 5.70

Query: # value lookup — system USP28 (Homo sapiens (Human)), readout pIC50, item Cc1ccc2c(N)c(C(=O)NCCc3ccc(N4CC5CCC(C4)N5)cc3C#N)sc2n1 [Compound I-36]
Reply: > 6.70
